System: human DNMT1
Assay: ELISA EpiQuik DNA methyltransferase (DNMT) activity/inhibitor assay
Assay type: biochemical
Conditions: 50 μM compound; 200 nM purified DNMT1; EpiQuik kit
PROPERTY MEASURED: Inh% at 50 μM (%)

>  <MOLECULE>
OC(CNC1CC1)COC(Cn1c2ccccc2c2cc(F)ccc21)Cn1c2ccccc2c2cc(F)ccc21 (stereo not shown) [WK-24]

>  <UNIT>
%

>  <Inh% at 50 μM>
2.3

$$$$

P = OC(CNCCc1c[nH]c2ccccc12)Cn1c2ccccc2c2ccncc21 (stereo not shown) [WK-20]
Q = CC(C)(C)OC(=O)N1CCN(CC(O)COC(Cn2c3ccccc3c3cc(F)ccc32)Cn2c3ccc(F)cc3c3cc(F)ccc32)C[C@@H]1CO (stereo partly shown) [WK-26]
R = OC[C@@H]1CN(CC(O)Cn2c3ccccc3c3cc(F)ccc32)CCN1 (stereo partly shown) [WK-11]
S = COc1ccccc1OCCNCC(O)Cn1c2ccc(F)cc2c2cc(F)ccc21 (stereo not shown) [WK-16]
Lookup: Arrange these molecules by their Inh% at 50 μM, starting with the largest number. Could you list the labels in the order requested?
Found: P, R, S, Q
(P: 68%, R: 41%, S: 27%, Q: 8.7%)

a = CCCCOCCCNCC(O)COC(Cn1c2ccccc2c2cc(F)ccc21)Cn1c2ccc(F)cc2c2cc(F)ccc21 (stereo not shown) [WK-29]
b = OC(CNCCc1c[nH]c2ccccc12)Cn1c2ccccc2c2cccnc21 (stereo not shown) [WK-21]
c = COc1ccccc1OCCNCC(O)Cn1c2ccccc2c2cc(F)ccc21 (stereo not shown) [WK-4]
d = CC(C)(C)OC(=O)N1CCN(CC(O)Cn2c3ccccc3c3cc(F)ccc32)C[C@H]1CO (stereo partly shown) [WK-10]
e = C[C@@H](CNCC(O)Cn1c2ccccc2c2cc(F)ccc21)c1ccccc1 (stereo partly shown) [WK-8]
Lookup: Arrange these molecules by their Inh% at 50 μM, starting with the largest number. Could you list the labels in the order requested?
Found: a, c, b, e, d

A = OC(CNCCc1c[nH]c2ccccc12)COC(Cn1c2ccccc2c2ccccc21)Cn1c2ccccc2c2ccccc21 (stereo not shown) [DC_517, reference compound]
B = OC(CNCCc1c[nH]c2ccccc12)Cn1c2ccccc2c2ccccc21 (stereo not shown) [DC_05, reference compound]
C = CC(CO)NCC(O)Cn1c2ccccc2c2cc(F)ccc21 (stereo not shown) [WK-7]
Lookup: Sort entries by Inh% at 50 μM from minimum to maximum value. Could you list the labels in the order requested?
Found: B, C, A

1 = Oc1ccc(CCNCC(O)Cn2c3ccc(F)cc3c3cc(F)ccc32)cc1 (stereo not shown) [WK-13]
2 = OC(CNCCc1ccc(F)cc1)Cn1c2ccccc2c2cc(F)ccc21 (stereo not shown) [WK-2]
Lookup: Response body: label of entry with the larger Inh% at 50 μM; valid values 1 , 2 . API: response body contains the label of the selected item.
Found: 1

A = OC(CNCCc1c[nH]c2ccccc12)COC(Cn1c2ccccc2c2cc(F)ccc21)Cn1c2ccc(F)cc2c2cc(F)ccc21 (stereo not shown) [WK-28]
B = CCCCOCCCNCC(O)Cn1c2ccccc2c2cc(F)ccc21 (stereo not shown) [WK-5]
C = OC(CNCc1ccc(F)cc1)Cn1c2ccccc2c2cc(F)ccc21 (stereo not shown) [WK-9]
Lookup: Arrange these molecules by their Inh% at 50 μM, starting with the largest number. Could you list the labels in the order requested?
Found: A, B, C

I = OC[C@H]1CN(CC(O)COC(Cn2c3ccccc3c3cc(F)ccc32)Cn2c3ccc(F)cc3c3cc(F)ccc32)CCN1 (stereo partly shown) [WK-27]
II = CC(O)CNCC(O)Cn1c2ccc(F)cc2c2cc(F)ccc21 (stereo not shown) [WK-18]
Lookup: Response body: label of entry with the larger Inh% at 50 μM; valid values I , II . API: response body contains the label of the selected item.
Found: I
(I: 100%, II: 70%)

A = OC(CNCCc1c[nH]c2ccccc12)Cn1c2ccc(F)cc2c2cc(F)ccc21 (stereo not shown) [WK-12]
B = CC(O)CNCC(O)Cn1c2ccccc2c2cc(F)ccc21 (stereo not shown) [WK-6]
Lookup: Could you check which of A and B has a smaller value for Inh% at 50 μM? API: response body contains the label of the selected item.
Found: B

----------
Parameter inhibition at 50 µM: see the listing below.
Tested on: HCT116 (human colon cancer cells)
Test: MTT assay, HCT116
Type: cell-based
Settings: HCT-116, 48 h, read-out: Inh % at 50 μM, HCT116, 48 h
Express your answer in %, writing the number without its unit.

>  <COMPOUND>
OC(CNCCc1c[nH]c2ccccc12)Cn1c2ccccc2c2cc(F)ccc21 (stereo not drawn) [WK-1]

>  <inhibition at 50 µM, %>
88

$$$$
>  <COMPOUND>
OC(CNCCc1c[nH]c2ccccc12)Cn1c2ccc(F)cc2c2cc(F)ccc21 (stereo not drawn) [WK-12]

>  <inhibition at 50 µM, %>
88.8

$$$$
>  <COMPOUND>
CC(C)NCC(O)COC(Cn1c2ccc(F)cc2c2cc(F)ccc21)Cn1c2ccc(F)cc2c2cc(F)ccc21 (stereo not drawn) [WK-22]

>  <inhibition at 50 µM, %>
91.8

$$$$
>  <COMPOUND>
Oc1ccc(CCNCC(O)Cn2c3ccc(F)cc3c3cc(F)ccc32)cc1 (stereo not drawn) [WK-13]

>  <inhibition at 50 µM, %>
86.3

$$$$
>  <COMPOUND>
CC(C)NCC(O)COC(Cn1c2ccccc2c2cc(F)ccc21)Cn1c2ccccc2c2cc(F)ccc21 (stereo not drawn) [WK-23]

>  <inhibition at 50 µM, %>
92.9

$$$$

Next item in the queue.
Lookup: Can you look up the measured inhibition at 50 µM of CC(CO)NCC(O)Cn1c2ccc(F)cc2c2cc(F)ccc21 (stereo not drawn) [WK-19] for me?
Found: 59.4

----------
Experiment: PK study in SD rats
Type: in vivo
Settings: rat, plasma, po; SD male rats; p.o. 10 mg/kg vs i.v. 2 mg/kg; F = (AUC p.o. × Dose i.v.)/(AUC i.v. × Dose p.o.) × 100%
Description: In vivo pharmacokinetic properties of WK-22, WK-23, WK-27, and DC_517 were performed by Medicilon Company, Shanghai, China. […] The AUC (area under concentration-time curve) was calculated through the trapezoidal rule with extrapolation to time infinity. The concentration of the compounds in the blood was analysed by LC-MS/MS (Shimadzu liquid chromatographic system and SCIEX Triple Quad 5500+ mass spectrometer, Applied Biosystems, Ontario, Canada). […]
PROPERTY MEASURED: bioavailability (%)

>  <COMPOUND>
CC(C)NCC(O)COC(Cn1c2ccccc2c2cc(F)ccc21)Cn1c2ccccc2c2cc(F)ccc21 (stereo not shown)

>  <UNIT>
%

>  <MEASURED RESULT>
37.1

$$$$

A = OC[C@H]1CN(CC(O)COC(Cn2c3ccccc3c3cc(F)ccc32)Cn2c3ccc(F)cc3c3cc(F)ccc32)CCN1 (stereo partly shown)
B = OC(CNCCc1c[nH]c2ccccc12)COC(Cn1c2ccccc2c2ccccc21)Cn1c2ccccc2c2ccccc21 (stereo not shown) [DC_517, reference compound]
C = CC(C)NCC(O)COC(Cn1c2ccc(F)cc2c2cc(F)ccc21)Cn1c2ccc(F)cc2c2cc(F)ccc21 (stereo not shown)
Lookup: Arrange these compounds by their bioavailability, starting with the largest number. Could you list the labels in the order requested?
Found: B, C, A

----------
System: DNMT3A/3L
Test: Methyltransferase enzymatic selectivity profiling, DNMT3A/3L
Assay type: biochemical
Settings: 1 - selected enzyme inhibition/DNMT1 inhibition; 50 µM
PROPERTY MEASURED: Relative selectivity index of DNMT1 vs DNMT 3A/3L

>  <COMPOUND>
OC(CNCCc1c[nH]c2ccccc12)Cn1c2ccc(F)cc2c2cc(F)ccc21 (centres unmarked)

>  <TESTED ON>
DNMT3A/3L

>  <MEASURED RESULT>
0.67

$$$$

P = OC[C@H]1CN(CC(O)COC(Cn2c3ccccc3c3cc(F)ccc32)Cn2c3ccc(F)cc3c3cc(F)ccc32)CCN1 (some centres unmarked)
Q = Oc1ccc(CCNCC(O)Cn2c3ccc(F)cc3c3cc(F)ccc32)cc1 (centres unmarked)
Lookup: Could you check which of P and Q has a smaller value for Relative selectivity index of DNMT1 vs DNMT 3A/3L? API: response body contains the label of the selected item.
Found: P
(P: 0.03, Q: 0.68)

I = CC(C)NCC(O)COC(Cn1c2ccccc2c2cc(F)ccc21)Cn1c2ccccc2c2cc(F)ccc21 (centres unmarked)
II = CC(C)NCC(O)COC(Cn1c2ccc(F)cc2c2cc(F)ccc21)Cn1c2ccc(F)cc2c2cc(F)ccc21 (centres unmarked)
III = CC(CO)NCC(O)Cn1c2ccc(F)cc2c2cc(F)ccc21 (centres unmarked)
Lookup: Sort entries by Relative selectivity index of DNMT1 vs DNMT 3A/3L from minimum to maximum value. Could you list the labels in the order requested?
Found: II, I, III
(II: 0.04, I: 0.06, III: 0.67)

a = CC(C)(C)NCC(O)COC(Cn1c2ccccc2c2cc(F)ccc21)Cn1c2ccccc2c2cc(F)ccc21 (centres unmarked)
b = OC(CNCCc1c[nH]c2ccccc12)Cn1c2ccccc2c2cc(F)ccc21 (centres unmarked)
Lookup: Could you check which of a and b has a smaller value for Relative selectivity index of DNMT1 vs DNMT 3A/3L? API: response body contains the label of the selected item.
Found: b
